assay: chemical genetic growth profiling, strain panel (AID 1159580);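 note: tested at 20 µM; growth read once vehicle control cultures reached saturation at 30 °C; lower values mean less growth of the strain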; conditions: S. cerevisiae deletion strains, growth OD, locus YMR263W, strain SAP30, hits give low values
The whole screen tested about 5,500 compounds, of which about 2,000 (36%) were called active. Another 18% or so got no clear call; they are omitted. This is one part of the list.
Each record is given Condition met if its reported normalized growth is strictly below 1. Records at or above 1 are given Condition not met.

Past entries and their recorded results:
sample-smiles	cat
O=c1c(O)cc([C@H]2Oc3cc(O)cc(O)c3C[C@H]2O)cc2c([C@H]3Oc4cc(O)cc(O)c4C[C@H]3O)cc(O)c(O)c12	Condition not met
O=C(Nc1ccc(Cl)cc1)N1CCN(c2ncccc2C(F)(F)F)CC1	Condition met
Cc1ccc(Sc2nc(C)c([N+](=O)[O-])c(C)c2C#N)cc1	Condition met
CC(=O)N1CCN(c2ccc(OC[C@H]3CO[C@](Cn4ccnc4)(c4ccc(Cl)cc4Cl)O3)cc2)CC1	Condition met
O=C(O/N=C1/CCCc2[nH]c3ccccc3c21)c1ccc(Cl)cc1Cl	Condition met

Req: Identify whether the compound COc1cc(NC(=S)N2CCN(c3ccccc3OC)CC2)c(OC)cc1Cl records normalized growth below 1.
Resp: Condition met

Req: Identify whether the compound Cc1ccc(Cl)cc1NC(=S)N(CCC#N)/N=C\c1ccc2c(c1)OCO2 records normalized growth below 1.
Resp: Condition not met
